ASSAYED_TARGET: IDO (Homo sapiens, UniProt P14902)
Sequence (P14902 whole entry): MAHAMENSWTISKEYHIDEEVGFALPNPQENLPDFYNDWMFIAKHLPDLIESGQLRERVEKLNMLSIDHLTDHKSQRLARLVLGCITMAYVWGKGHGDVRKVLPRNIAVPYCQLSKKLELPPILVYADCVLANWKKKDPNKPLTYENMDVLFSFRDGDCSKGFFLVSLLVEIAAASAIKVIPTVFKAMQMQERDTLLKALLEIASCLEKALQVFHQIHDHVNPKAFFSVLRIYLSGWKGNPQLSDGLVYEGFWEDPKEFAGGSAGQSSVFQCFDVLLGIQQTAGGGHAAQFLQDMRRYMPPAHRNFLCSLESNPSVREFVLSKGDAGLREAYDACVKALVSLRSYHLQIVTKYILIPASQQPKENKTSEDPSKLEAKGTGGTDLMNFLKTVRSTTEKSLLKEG
ASSAY_SUMMARY: LLE_IDO_ABS_DR (IDO assay)
Attribute: log10(IC50)
RECORDED_ENDPOINT: log10(IC50) (log10 of the value in nM)

# COMPOUND, log10(IC50)
records = [
    ("Cc1ccc(NC(=O)Nc2cc(-c3cc(F)ccc3C(=O)O)ccc2N(CC(C)C)CC2CC(F)(F)C2)cc1 [Example 380]", 1.70),
    ("Cc1ccc(NC(=O)Nc2c(N(CC(C)C)CC(C)C)ccc(-c3ccccc3C(=O)O)c2F)cc1 [Example 26]", 2.57),
    ("Cc1ccc(NC(=O)Nc2cc(C3=C(c4nnn[nH]4)CCC3)ccc2N(CC(C)C)CC(C)C)cc1 [Example 164]", 0.73),
    ("Cc1ccc(NC(=O)Nc2cc(-c3ccccc3-c3nnn[nH]3)c(F)cc2N(C)C2CCCCC2)cc1 [Example 222]", 1.00),
    ("O=C(Nc1ccc(C(F)(F)F)cc1F)Nc1cc(-c2ccccc2-c2nnn[nH]2)ccc1N(CCC(F)(F)F)Cc1ccc(F)cc1C(F)(F)F [Example 300]", 2.26),
    ("COc1ccc(-c2ccc(N(CC(C)C)CC(C)C)c(NC(=O)Nc3ccc(C)cc3)c2)c(-c2nnn[nH]2)c1 [Example 117]", 1.00),
    ("CCN(CC(C)(C)C)c1ccc(-c2ccccc2C(=O)O)cc1NC(=O)Nc1ccccc1F [Example 108]", 2.40),
    ("CC(C)CN(CC(C)C)c1ccc(-c2ccccc2-c2nnn[nH]2)cc1NC(=O)Nc1ccc(F)cc1OC(C)C [Example 272]", 3.43),
    ("O=C(Nc1ccc(F)cc1F)Nc1cc(-c2ccccc2-c2nnn[nH]2)ccc1N(CCC(F)(F)F)Cc1ccc(Cl)cc1Cl [Example 336]", 2.53),
    ("Cc1ccc(NC(=O)Nc2cc(-c3ccccc3C(=O)O)cc(F)c2N(CC(C)C)CC(C)C)cc1 [Example 6]", 0.81),
    ("CC(C)CN(Cc1ccccc1)c1ccc(-c2ccccc2-c2nnn[nH]2)cc1NC(=O)Nc1ccc(C2CC2)cc1 [Example 291]", 1.95),
    ("COC(CN(C)c1ccc(-c2ccccc2-c2nnn[nH]2)cc1NC(=O)Nc1ccc(C)cc1)OC [Example 55]", 2.36),
    ("Cc1ccc(NC(=O)Nc2cc(-c3ccccc3C(=O)O)ccc2N(C)C2CCC(F)(F)CC2)cc1 [Example 104]", 2.00),
    ("C=C(C)CN(CC(F)(F)F)c1ccc(-c2ccccc2C(=O)O)cc1NC(=O)Nc1ccc(C)cc1 [Example 471]", 1.60),
    ("COC(CN(C)c1ccc(-c2ccccc2C(=O)O)cc1NC(=O)Nc1ccc(C)cc1)OC [Example 54]", 2.48),
    ("CC(C)CN(CC(C)C)c1ccc(-c2ccccc2-c2nnn[nH]2)cc1NC(=O)Nc1cccc2c1CCC2 [Example 276]", 2.89),
    ("Cc1ccc(NC(=O)Nc2cc(-c3ccccc3-c3nnn[nH]3)ccc2N(CCC(F)(F)F)CC(C)C)cc1 [Example 199]", 1.78),
    ("CC(C)CN(CC(C)C)c1ccc(-c2ccccc2-c2nnn[nH]2)cc1NC(=O)Nc1nccs1 [Example 7]", 1.30),
    ("CCN(CC(C)(C)C)c1ccc(-c2ccccc2C(=O)O)cc1NC(=O)Nc1ccc(C)cc1 [Example 111]", 2.32),
    ("Cc1ccc(NC(=O)Nc2cc(-c3cc(F)ccc3C(=O)O)ccc2N(Cc2ccccc2)CC(F)F)cc1 [Example 21]", 2.18),
    ("Cc1ccc(NC(=O)Nc2cc(-c3ccccc3-c3nnn[nH]3)ccc2N(CC(C)C)CC(C)C)c(F)c1 [Example 264]", 0.42),
    ("C#Cc1cccc(NC(=O)Nc2cc(-c3ccccc3-c3nnn[nH]3)ccc2N(CC(C)C)CC(C)C)c1 [Example 241]", 1.30),
    ("Cc1ccc(NC(=O)Nc2cc(-c3ccccc3-c3nnn[nH]3)ccc2N(CC(C)C)C2CCOCC2)cc1 [Example 379]", 1.30),
    ("CC(C)CN(CC(C)C)c1ccc(-c2ccccc2-c2nnn[nH]2)cc1NC(=O)Nc1ccc(C(F)(F)F)cc1 [Example 249]", 2.15),
    ("CCCN(c1ccc(-c2ccccc2C(=O)O)cc1NC(=O)Nc1ccccc1F)C1CCCC1 [Example 168]", 1.48),
    ("Cc1ccc(NC(=O)Nc2cc(-c3ccccc3C(=O)O)ccc2N(CC(C)C)CC(C)C)cc1 [Example 52]", 1.00),
    ("O=C(Nc1ccccc1F)Nc1cc(-c2cc(F)ccc2C(=O)O)ccc1N(Cc1ccc(Cl)cc1)C1CCCCC1 [Example 470]", 2.28),
]

---

ASSAYED_TARGET: IDO (Homo sapiens)
ASSAY_SUMMARY: LLE_IDO_ABS_DR (IDO assay)
pIC50: −log10 of the molar value.
Given measured pIC50, output Met if it is greater than or equal to 8 and Not met if not.

# COMPOUND, DISCRETE_LABEL
records = [
    ("Cc1ccc(NC(=O)Nc2cc(-c3sccc3C(=O)O)ccc2N(CCC2CC2)CC(C)C)cc1", "Not met"),
    ("CCC1CCCCN1c1ccc(-c2ccccc2-c2nnn[nH]2)cc1NC(=O)Nc1ccc(C)cc1 (centres unmarked)", "Not met"),
    ("Cc1ccc(NC(=O)Nc2cc(-c3ccccc3-c3nnn[nH]3)ccc2N2CCC(c3nc(C)no3)C2)cn1 (centres unmarked)", "Not met"),
    ("Cc1ccc(NC(=O)Nc2cc(-c3ccccc3-c3nnn[nH]3)c(F)cc2N(CC(C)C)C2CCCCC2)cc1", "Met"),
    ("CCN(CCOC)c1ccc(-c2ccccc2-c2nnn[nH]2)cc1NC(=O)Nc1ccc(C)cc1", "Not met"),
    ("Cc1ccc(NC(=O)Nc2cc(-c3ccccc3C(=O)O)ccc2N(CC(C)C)C2CCC2)cc1", "Not met"),
    ("CC(C)CN(c1ccc(-c2ccccc2C(=O)O)cc1NC(=O)Nc1ccccc1F)C1CCC(F)(F)CC1", "Met"),
]

---

ASSAYED_TARGET: IDO (Homo sapiens)
ASSAY_SUMMARY: LLE_IDO_ABS_DR (IDO assay)

# COMPOUND, ASSAYED_TARGET, UNITS_LABEL, IC50
measured = [
    ("Cc1ccc(NC(=O)Nc2cc(-c3ccccc3-c3nnn[nH]3)ccc2N(CC(F)F)CC2CC2)cc1", "IDO (Homo sapiens)", "nM", 140),
    ("Cc1ccc(NC(=O)Nc2cc(-c3ccccc3-c3nnn[nH]3)ccc2N(CCC(F)(F)F)Cc2ccccc2)cc1", "IDO (Homo sapiens)", "nM", 100),
    ("CCCN(CC1CC1)c1ccc(-c2ccccc2C(=O)O)cc1NC(=O)Nc1ccc(C)cc1", "IDO (Homo sapiens)", "nM", 100),
    ("Cc1ccc(NC(=O)Nc2cc(-c3ccccc3-c3nnn[nH]3)ccc2N(CCC(C)C(F)(F)F)C2CCCCC2)cc1 (centres unmarked)", "IDO (Homo sapiens)", "nM", 80),
    ("Cc1ccc(NC(=O)Nc2cc(-c3cc(F)ccc3C(=O)O)ccc2N(CC(C)C)CC2CCC2)cc1", "IDO (Homo sapiens)", "nM", 90),
]

---

ASSAYED_TARGET: Human IDO1 (Homo sapiens, UniProt P14902)
ASSAY_SUMMARY: IDO Kynurenine Assay with Human IDO1/HEK293 Cells
STATED_CONDITIONS: read-out: HEK human IDO-1 (IC50)
pIC50: −log10 of the molar value.

# ENTRY_SMILES, pIC50
data = [
    ("Cc1ccc(NC(=O)Nc2cc(-c3ccccc3-c3nnn[nH]3)ccc2N(CCCC(F)(F)F)C2CCCCC2)cc1", 8.00),
    ("CCC(CC)N(CC(C)C)c1ccc(-c2cc(F)ccc2C(=O)O)cc1NC(=O)Nc1ccc(C)cc1", 8.00),
    ("Cc1ccc(NC(=O)Nc2cc(-c3ccccc3-c3nnn[nH]3)ccc2N(C2CC2)C2CC2)cc1", 6.12),
]

---

ASSAYED_TARGET: Human IDO1 (Homo sapiens)
ASSAY_SUMMARY: IDO Kynurenine Assay with Human IDO1/HEK293 Cells
STATED_CONDITIONS: read-out: HEK human IDO-1 (IC50)
Rule: IC50 below 0.1 µM gives y, anything at or above gives n.

# COMPOUND, DISCRETE_LABEL
records = [
    ("CC(C)CN(CC(C)C)c1cc(F)c(-c2cc(F)ccc2C(=O)O)cc1NC(=O)Nc1ccc(Cl)cc1F", "y"),
    ("CC(C)CN(CC(C)C)c1ccc(-c2cccc(OC(F)(F)F)c2C(=O)O)cc1NC(=O)Nc1ccc(C#N)nc1", "n"),
    ("CC(C)CN(CC(C)C)c1ccc(-c2ccc(Cl)cc2C(=O)O)cc1NC(=O)Nc1ccc(C#N)nc1", "n"),
    ("Cc1ccc(NC(=O)Nc2cc(-c3ccccc3-c3nnn[nH]3)cc(F)c2N(CC(C)C)C2CCCCC2)cc1", "y"),
    ("C=C(C)CN(c1ccc(-c2cc(F)ccc2C(=O)O)cc1NC(=O)Nc1ccc(C)cc1)C1CCCCC1", "y"),
    ("C=C(C)CN(CCCC(F)(F)F)c1ccc(-c2ccccc2-c2nnn[nH]2)cc1NC(=O)Nc1ccc(C)cc1", "y"),
    ("CC(C)CN(CC(C)C)c1ccc(-c2ccccc2-c2nnn[nH]2)cc1NC(=O)Nc1cncnc1", "n"),
    ("CC(C)CN(c1ccc(-c2cc(F)ccc2C(=O)O)cc1NC(=O)Nc1cc(C(F)(F)F)no1)C1CCCCC1", "y"),
    ("Cc1ccc(NC(=O)Nc2cc(-c3cc(F)ccc3C(=O)O)c(F)cc2N(CC(C)C)C2C[C@H]3CC[C@@H]2C3)cc1 (stereo partly drawn)", "y"),
    ("CC(C)CN(CC(C)C)c1ccc(-c2ccccc2-c2nnn[nH]2)cc1NC(=O)Nc1ccc2c(c1)CCC2", "n"),
    ("O=C(Nc1ccc(F)cc1F)Nc1cc(-c2ccccc2-c2nnn[nH]2)ccc1N(CCCC(F)(F)F)Cc1ccc(Cl)cc1", "y"),
    ("O=C(Nc1ccc(F)cc1F)Nc1cc(-c2ccccc2-c2nnn[nH]2)ccc1N(CCc1ccccc1)CCC(F)(F)F", "n"),
    ("Cc1cc(NC(=O)Nc2cc(-c3ccccc3C(=O)O)ccc2N(CC(C)C)C2CCCCC2)on1", "y"),
    ("CC(C)CN(c1cc(F)c(-c2cc(F)ccc2C(=O)O)cc1NC(=O)Nc1ccc(OC(F)(F)F)cc1)C1CCCCC1", "y"),
    ("Cc1ccc(NC(=O)Nc2cc(-c3cc(F)ccc3C(=O)O)ccc2N(C2CC2)C2CC2)cc1", "n"),
    ("CC(C)CN(c1cc(F)c(-c2cc(F)ccc2C(=O)O)cc1NC(=O)Nc1ccccc1F)C1CCC(F)(F)CC1", "y"),
    ("CC(C)CN(CC(C)C)c1ccc(-c2cc(F)ccc2-c2nnn[nH]2)cc1NC(=O)Nc1ccccc1F", "y"),
    ("Cc1ccc(NC(=O)Nc2cc(-c3ccccc3-c3nnn[nH]3)ccc2N2C[C@@H]3C[C@H]2CN3c2ccc(F)cc2)cc1", "n"),
]
